Entry source: patent US20230303613A1

# ΔTm at 150 µM per entry
Biological target: WT STING (Homo sapiens, UniProt Q86WV6, H232R)
Sequence (Q86WV6 140-343 H232R): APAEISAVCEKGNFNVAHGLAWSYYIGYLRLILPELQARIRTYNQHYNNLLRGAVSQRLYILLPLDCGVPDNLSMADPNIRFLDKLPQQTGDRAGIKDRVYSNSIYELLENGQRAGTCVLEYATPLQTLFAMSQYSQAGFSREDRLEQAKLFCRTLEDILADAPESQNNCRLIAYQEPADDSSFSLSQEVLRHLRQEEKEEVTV
Experiment: Differential Scanning Fluorimetry with WT STING
Assay type: binding
Design: 8xHis (N, cleaved yes); SUMO (N, cleaved yes); made in house; host or cells: E. coli Rosetta-gami B (DE3)
Conditions: thermal shift vs apoprotein; 150 µM CDN; truncated human WT STING 0.1 mg/ml; read-out: DSF ΔTm WT STING
Description: Purified PCR products were cleaved with restriction enzymes BamHI (cat. # R0136S, NEB, Ipswich, USA) and NotI (cat. # R0189S, NEB, Ipswich, USA) and cloned into the pSUMO vector linearized with the identical enzymes. […]
Hi, when you answer, please include the unit after the number. Thanks!

Here is how some compounds turned out for ΔTm at 150 µM.
Nc1nc2c(ncn2[C@@H]2O[C@@H]3/C=C/P(=O)(O)O[C@H]4C[C@H](n5cnc6c(N)ncnc65)O[C@@H]4COP(=O)(O)O[C@H]3[C@H]2O)c(=O)[nH]1; 1.9 °C
Nc1nc(N)c2ncn([C@@H]3O[C@@H]4COP(=O)(O)O[C@H]5[C@@H](O)[C@H](n6cnc7c(=O)[nH]c(N)nc76)O[C@@H]5/C=C\P(=O)(O)O[C@H]4[C@H]3F)c2n1; 3.1 °C
Nc1nc2c(ncn2[C@@H]2O[C@@H]3/C=C/P(=O)(O)O[C@H]4[C@@H](F)[C@H](n5cnc6c(N)ncnc65)O[C@@H]4COP(=O)(O)O[C@H]3[C@H]2F)c(=O)[nH]1; 9.2 °C
Nc1nc2c(ncn2[C@@H]2O[C@@H]3/C=C\P(=O)(O)O[C@H]4C[C@H](n5cnc6c(N)nc(F)nc65)O[C@@H]4COP(=O)(O)O[C@H]3[C@H]2O)c(=O)[nH]1; 0.5 °C
Nc1nc2c(ncn2[C@H]2C[C@@H]3OP(=O)(O)/C=C/[C@H]4O[C@@H](n5cnc6c(N)ncnc65)[C@H](F)[C@@H]4OP(=O)(O)OC[C@H]3O2)c(=O)[nH]1; 6.1 °C

# ΔTm at 150 µM of Nc1nc(N)c2ncn([C@@H]3O[C@@H]4COP(=O)(O)O[C@H]5[C@@H](O)[C@H](n6cnc7c(=O)[nH]c(N)nc76)O[C@@H]5/C=C\P(=O)(O)O[C@H]4[C@H]3O)c2n1 (stereo in doubt) = 1.2 °C

# ΔTm at 150 µM of CSc1ncnc2c1ncn2[C@@H]1O[C@@H]2COP(=O)(O)O[C@H]3[C@@H](O)[C@H](n4cnc5c(=O)[nH]c(N)nc54)O[C@@H]3/C=C\P(=O)(O)O[C@H]2[C@H]1O (stereo in doubt) = 0.5 °C
